- System: Reticulitermes speratus
- Experiment Summary: Ratio of antifeedant activity for compound to antifeedant activity for latifolin against Reticulitermes speratus at 3% measured after 14 days
- Type: functional
Measured Property: Ratio
One number for each entry.

Example compounds with recorded Ratio:
Compound | Measured Property | Observed
C=C[C@H](c1ccccc1O)c1cc(OC)c(OC)cc1OC [5-O-METHYLLATIFOLIN] | Ratio | 3.25
C=C[C@H](c1ccccc1OC)c1cc(O)c(OC)cc1OC [2'-O-METHYLLATIFOLIN] | Ratio | 1.98
C=C[C@H](c1ccccc1OC)c1cc(OC)c(OC)cc1OC [LATIFOLIN DIMETHYL ETHER] | Ratio | 3.42

Let us move to another entry and its Ratio.
Ask: Form entry - test system: Reticulitermes speratus; read-out: Ratio; compound: C=C[C@@H](c1cc(OC(C)=O)c(OC)cc1OC)c1ccccc1OC(C)=O [LATIFOLIN DIACETATE]
Reply: 2.89

---

- Tested on: Trametes versicolor
- Experiment Summary: Antifungal activity against Trametes versicolor NBRC 30340 assessed as mycelial growth inhibition at 5 ug/cm'2 at 25.5 degC after 5 days
- Assay type: functional
Would you mind telling me the reported inhibition (INH) of each entry?
One number for each entry, in %.

Please review the following examples before continuing.
Molecule | Measured Property | Observed
C=C[C@H](c1ccccc1O)c1cc(OC)c(OC)cc1OC | inhibition (INH) | 13.2
C=C[C@H](c1ccccc1OC)c1cc(OC)c(OC)cc1OC | inhibition (INH) | 15.3
C=C[C@H](c1ccccc1O)c1cc(O)c(OC)cc1OC | inhibition (INH) | 79.1
C=C[C@H](c1ccccc1OC)c1cc(O)c(OC)cc1OC | inhibition (INH) | 16.5

Field: next molecule
Ask: Entry under review: C=C[C@@H](c1cc(OC(C)=O)c(OC)cc1OC)c1ccccc1OC(C)=O [LATIFOLIN DIACETATE] . Reported inhibition (INH)?
Reply: 21.8
